- experiment description: log P by HPLC on a reversed-phase column (C 18), EEC Directive 79/831 Annex V.A8
- Type: physicochemical
- measurement setup: acidic range, pH 2.7, 0.1% aqueous formic acid/acetonitrile, 55° C.
// reported LOGP_HCOOH per item
Write the number on its own, no unit after it.

CCS(=O)(=O)c1c(-c2nc3cc(C(F)(F)F)ccc3n2C)nc2ccccn12: 2.70

Reported LOGP_HCOOH for CCS(=O)(=O)c1c(-c2nc3cc(C(F)(F)F)ccc3s2)nc2ccccn12 : what is it? 3.60

What do you get for CCSc1ccn2c(SCC)c(-c3nc4cc(C(F)(F)F)ccc4n3C)nc2c1 ? 4.23

Also need CCSc1c(-c2nc3cc(C(F)(F)F)cnc3o2)nc2cc(C(F)(F)F)ccn12 , thanks. 4.14

What would you report for CCS(=O)(=O)c1c(-c2nc3cc(C(F)(F)F)cnc3o2)nc2ccc(C)cn12 ? 2.89

Now the compound CCS(=O)(=O)c1c(-c2nc3cc(C(F)(F)F)ccc3n2C)nc2ccc(C(F)(F)F)cn12 3.70

Then CC[S+]([O-])c1c(-c2nc3cc(C(F)(F)F)ncc3n2C)nc2ccc(OC)cn12 (centres unmarked) ? 2.54

# iterate: CCSc1c(-c2nc3cc(C(F)(F)F)ccc3n2C)nc2cc(C(F)(F)F)ccn12 4.50

Let us now turn to CCS(=O)(=O)c1c(-c2nc3cc(C(F)(F)F)ncc3n2C)nc2ccc(C)cn12 2.43

Same question for CCSc1c(-c2nc3cc(C(F)(F)F)ccc3n2C)nc2ccc(Cl)cn12 please. 4.12

Could you do the same for CC[S+]([O-])c1c(-c2nc3cc(C(F)(F)F)ncc3n2C)nc2ccc(Cl)cn12 (centres unmarked) , please? 2.93

Next entry: CC[S+]([O-])c1c(-c2nc3cc(C(F)(F)F)ccc3n2C)nc2ccccn12 (centres unmarked) 2.92

Then what about the compound CCSc1c(-c2nc3cc(C(F)(F)F)ccc3n2C)nc2cc(C)ccn12 ? 3.41

And what about the compound CCSc1c(-c2nc3cc(C(F)(F)F)ccc3n2C)nc2cccc(C(F)(F)F)n12 ? 4.09

What about this compound? CC[S+]([O-])c1c(-c2nc3cc(C(F)(F)F)ncc3n2C)nc2cc(C(F)(F)F)ccn12 (centres unmarked) 3.29

Next up: CCS(=O)(=O)c1cccn2c(S(=O)(=O)CC)c(-c3nc4cc(C(F)(F)F)ncc4n3C)nc12 2.30

Now try CCSc1c(-c2nc3cc(C(F)(F)F)ncc3n2C)nc2ccc(C)cn12 . 3.20
